test.target: T1, human GLP-2 receptor (hGLP2-R) (human, UniProt O95838 1-553)
T1 sequence (looked up): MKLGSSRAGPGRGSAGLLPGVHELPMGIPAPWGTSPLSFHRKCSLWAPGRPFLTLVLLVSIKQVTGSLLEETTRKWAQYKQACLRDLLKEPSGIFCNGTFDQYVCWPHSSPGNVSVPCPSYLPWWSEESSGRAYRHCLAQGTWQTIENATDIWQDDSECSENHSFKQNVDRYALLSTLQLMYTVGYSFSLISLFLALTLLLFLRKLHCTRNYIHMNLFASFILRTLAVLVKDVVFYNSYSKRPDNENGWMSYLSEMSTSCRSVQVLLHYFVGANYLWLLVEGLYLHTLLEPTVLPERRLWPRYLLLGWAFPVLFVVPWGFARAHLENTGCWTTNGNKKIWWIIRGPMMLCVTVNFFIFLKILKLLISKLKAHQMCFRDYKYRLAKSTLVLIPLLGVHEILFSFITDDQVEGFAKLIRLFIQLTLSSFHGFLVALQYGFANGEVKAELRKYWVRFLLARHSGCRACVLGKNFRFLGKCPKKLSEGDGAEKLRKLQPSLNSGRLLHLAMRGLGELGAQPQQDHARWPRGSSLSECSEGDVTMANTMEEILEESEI
method.notes: cell-based or functional assay
*1 amine or outer side, *2 acyl side, *3 side chain or, on linkers, in order; H or OH if unused. Where no end group is shown, it is not given here. Side-chain parts run from the residue outwards. [ ]: non-standard residue; d: D form. The star is where a group is joined. C20 diacid = O=C(O)CCCCCCCCCCCCCCCCCCC(=O)*; C18 diacid = O=C(O)CCCCCCCCCCCCCCCCC(=O)*; γGlu = O=C(O)[C@H](CCC(=O)[*:2])N[*:1]; AEEA = NCCOCCOCC(=O)O; Aib = CC(C)(N)C(=O)O
Measured EC50 GLP-2 (nM); cAMP response values are reported for all entries that follow.

| binder | EC50 GLP-2 (nM); cAMP response |
| --- | --- |
| H-H[Aib]EGSFTSEK([AEEA-AEEA-Lys-Glu-Lys-γGlu-C20 diacid])ATILDEQAARDFIAWLIEHKITD-OH [Compound 55] | 0.78 |
| H-H[Aib]EGSFTSELATILDK([AEEA-Lys-Glu-Lys-γGlu-C20 diacid])QAARDFIAWLIAHKITD-OH [Compound 58] | 0.09 |
| H-H[Aib]EGSFTSELATILDAKAAK([AEEA-Lys-Glu-Lys-γGlu-C20 diacid])DFIAWLIEHKITD-OH [Compound 68] | 0.1 |
| H-H[Aib]EGTFSSELATILDEQAARDFIAWLIAHKITD[dK][dK][dK][dK][dK][dK]([γGlu-C18 diacid])-NH2 [Compound 38] | 0.89 |
| H-H[Aib]EGTFTSELATILDK([AEEA-Lys-Glu-Lys-γGlu-C20 diacid])QAARDFIAWLIQHKITD-OH [Compound 52] | 0.075 |
| H-H[Aib]EGTFTSELATILDEQAAK([AEEA-Lys-Glu-Lys-γGlu-C20 diacid])DFIAWLIEHKITD-OH [Compound 65] | 0.35 |
| H-H[Aib]EGSFTSELATILDK([AEEA-Lys-Glu-Lys-γGlu-C20 diacid])QAARDFIAWLIEHKITD-OH [Compound 57] | 0.083 |
| H[Aib]EGTFSSELATILDK([γGlu-C18 diacid])KAARDFIAWLIEHKITD-OH [Compound 4] | 0.087 |
